- test-system: human recombinant serotonin 5-HT1B receptor (Homo sapiens, UniProt P28222)
- Construct: expressed in transfected cells; host or cells: CHO-K1 cell line, membrane extracts
- Sequence (P28222 whole entry): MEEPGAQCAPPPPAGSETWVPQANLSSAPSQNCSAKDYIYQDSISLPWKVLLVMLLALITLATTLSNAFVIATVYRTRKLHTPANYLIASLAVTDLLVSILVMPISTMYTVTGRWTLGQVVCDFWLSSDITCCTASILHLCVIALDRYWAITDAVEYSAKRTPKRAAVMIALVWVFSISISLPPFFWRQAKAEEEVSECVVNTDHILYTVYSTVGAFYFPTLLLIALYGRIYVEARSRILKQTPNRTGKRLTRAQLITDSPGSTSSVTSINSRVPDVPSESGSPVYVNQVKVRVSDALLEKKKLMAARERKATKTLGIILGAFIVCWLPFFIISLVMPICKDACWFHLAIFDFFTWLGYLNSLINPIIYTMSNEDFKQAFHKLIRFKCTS
- procedure-summary: 5-HT1B radioligand binding competition assay ([3H]5-CT, CHO-K1 membranes)
- protocol-conditions: 5 μM, in duplicate, average
- Procedure: To determine the binding activity at the human recombinant serotonin 5-HT1B receptor of compounds of the invention, CHO-K1 cell line expressing the human 5-HT1B recombinant receptor was amplified to prepare membranes used for the radioligand binding assay throughout the study. […] 50 μL Microscint 20 (Packard) was added and the plate was incubated 15 min on an orbital shaker and then counted with a TopCount™ for 1 min/well. […]
result-type: 5-HT1B (5 μM) % Binding relative to bound radioligand (%)

# compound, meas-value
data = [
    ("C/C(=C/n1c2c(c3cc(C)ccc31)CN(C)CC2)c1ccc(F)cc1F", 6),
    ("CN1CCc2c(c3cccc(Cl)c3n2CC(C)(O)c2ccncc2)C1 (stereo not drawn)", 3),
    ("C/C(=C\\n1c2c(c3cc(C)ccc31)CN(C)C(C)C2)c1ccc(C)nc1 (stereo not drawn)", 25),
    ("C/C(=C/n1c2c(c3cc(C)ccc31)CN(C)CC2)c1ccncc1", 10),
    ("C/C(=C\\n1c2c(c3cccc(F)c31)CN(C)CC2)c1ccncc1", 4),
    ("C/C(=C\\n1c2c(c3ccccc31)CN(C)CC2)c1ccncc1", 10),
    ("C/C=C(\\Cn1c2c(c3cc(C)ccc31)CN(C)CC2)c1ccncc1", 68),
    ("COc1ccc(C(C)(O)Cn2c3c(c4cc(C)ccc42)CN(C)CC3)cc1 (stereo not drawn)", 16),
    ("C/C(=C\\n1c2c(c3cc(C)ccc31)CN(C)CC2)c1cccnc1", 9),
]
